System: Staphylococcus aureus (H-Heatley) NRRL B-314
Assay: in vitro turbidometric assay (Autoturb Microbiological Assay System) against Staphylococcus aureus
Format: cell-based
Settings: nutrient broth pH 7, approximately 4 hours at 37° C., A-40104 factor A as standard
quantity name: Units of Activity (µg/mg)
Give the quantity in µg/mg, number only.

C=C[C@]1(C)C[C@@H](OC(=O)CS[C@@H]2O[C@H](CO)[C@@H](O)[C@H](O)[C@H]2O)[C@]2(C)[C@H](C)CC[C@]3(CCC(=O)[C@H]32)[C@@H](C)[C@@H]1O; 36
C=C[C@]1(C)C[C@@H](OC(=O)CS[C@@H]2OC[C@@H](O)[C@@H](O)[C@@H]2O)[C@]2(C)[C@H](C)CC[C@]3(CCC(=O)[C@H]32)[C@@H](C)[C@@H]1O; 380

Send back Staphylococcus aureus (H-Heatley) NRRL B-314 Units of Activity of C=C[C@]1(C)C[C@@H](OC(=O)CS[C@H]2OC[C@@H](OC(C)=O)[C@@H](OC(C)=O)[C@H]2OC(C)=O)[C@]2(C)[C@H](C)CC[C@]3(CCC(=O)[C@H]32)[C@@H](C)[C@@H]1O only.
50

* * *

MIC reference
Tested on: Mycoplasma hyorhinis
Assay: in vitro broth-dilution studies, mycoplasma
Type: cell-based
Please give a number only; it is taken to be in µg/mL.

// below: answered compounds
C=C[C@]1(C)C[C@@H](OC(=O)CO[C@H]2O[C@H](COCc3ccccc3)[C@@H](OCc3ccccc3)[C@H](OCc3ccccc3)[C@H]2OCc2ccccc2)[C@]2(C)[C@H](C)CC[C@]3(CCC(=O)[C@H]32)[C@@H](C)[C@@H]1O; 50
C=C[C@]1(C)C[C@@H](OC(=O)CO[C@@H]2O[C@H](CO)[C@@H](O)[C@H](O)[C@H]2O)[C@]2(C)[C@H](C)CC[C@]3(CCC(=O)[C@H]32)[C@@H](C)[C@@H]1O; 0.78
C=C[C@]1(C)C[C@@H](OC(=O)CO[C@@H]2O[C@H](COC(C)=O)[C@@H](OC(C)=O)[C@H](OC(C)=O)[C@H]2OC(C)=O)[C@]2(C)[C@H](C)CC[C@]3(CCC(=O)[C@H]32)[C@@H](C)[C@@H]1O; 0.78
CC[C@]1(C)C[C@@H](OC(=O)CS[C@@H]2OC[C@@H](O)[C@H](O)[C@H]2O)[C@]2(C)[C@H](C)CC[C@]3(CCC(=O)[C@H]32)[C@@H](C)[C@@H]1O; 0.39
C=C[C@]1(C)C[C@@H](OC(=O)CS[C@@H]2O[C@H](CO)[C@@H](O)[C@H](O)[C@H]2O)[C@]2(C)[C@H](C)CC[C@]3(CCC(=O)[C@H]32)[C@@H](C)[C@@H]1O; 1.56

# evaluate next
// fetch MIC given entry CC[C@]1(C)C[C@@H](OC(=O)CS[C@@H]2OC[C@@H](OC(C)=O)[C@H](OC(C)=O)[C@H]2OC(C)=O)[C@]2(C)[C@H](C)CC[C@]3(CCC(=O)[C@H]32)[C@@H](C)[C@@H]1O
0.39

* * *

Test system: Bacteroides fragilis 1877
Assay: standard agar-dilution test, anaerobic bacteria
Assay type: cell-based
Conditions: Bacteroides fragilis 1877; 24-hour incubation; read-out: MIC
quantity name: MIC (µg/mL)
// units = µg/mL; emit number, no label

CC[C@]1(C)C[C@@H](OC(=O)CS[C@@H]2O[C@H](CO)[C@@H](O)[C@H](O)[C@H]2O)[C@]2(C)[C@H](C)CC[C@]3(CCC(=O)[C@H]32)[C@@H](C)[C@@H]1O; 64
C=C[C@]1(C)C[C@@H](OC(=O)CS[C@@H]2O[C@H](COC(C)=O)[C@@H](OC(C)=O)[C@H](OC(C)=O)[C@H]2OC(C)=O)[C@]2(C)[C@H](C)CC[C@]3(CCC(=O)[C@H]32)[C@@H](C)[C@@H]1O; 32

Kindly review the next compound as well.
Note down MIC recorded for C=C[C@]1(C)C[C@@H](OC(=O)CS[C@@H]2O[C@H](CO)[C@@H](O)[C@H](O)[C@H]2O)[C@]2(C)[C@H](C)CC[C@]3(CCC(=O)[C@H]32)[C@@H](C)[C@@H]1O
64
